- protocol: N-octanol/0.1 M HCl partition coefficient, log P of the compound after 5 hrs by spectrophotometric analysis
- Assay type: physicochemical
measurement.kind: logP at 5 h

# molecule, logP at 5 h
measured = [
    ("COc1cc2oc(-c3ccc(O)cc3)cc(=O)c2c(O)c1OC [CIRSIMARITIN]", 2.19),
    ("COc1c(O)c(O)cc2oc(-c3ccc(O)cc3)cc(=O)c12", 1.55),
    ("COc1cc2oc(-c3ccc(O)cc3)cc(=O)c2c(O)c1O", 1.59),
    ("O=C(O)[C@H]1O[C@@H](Oc2cc3oc(-c4ccc(O)cc4)cc(=O)c3c(O)c2O)[C@H](O)[C@@H](O)[C@@H]1O [SCUTELLARIN]", 0.592),
    ("COc1ccc(-c2cc(=O)c3c(O)c(OC)c(O)cc3o2)cc1 [PECTOLINARIGENIN]", 2.14),
]

1: COc1ccc(-c2cc(=O)c3c(O)c(O)c(O)cc3o2)cc1
2: COc1ccc(-c2cc(=O)c3c(O)c(OC)c(OC)cc3o2)cc1 [SALVIGENIN]
3: O=c1cc(-c2ccc(O)cc2)oc2cc(O)c(O)c(O)c12 [SCUTELLAREIN]
QUERY: // sort entries: logP at 5 h, high to low Order the labels as requested and give them as your answer.
RESULT: 2, 1, 3
(2: 2.64, 1: 1.65, 3: 0.892)

Origin of values: ChEMBL document CHEMBL3739414
